Entries and their measured EC50 follow.
Subject Of Test: F508delCFTR (Homo sapiens, UniProt P13569, DEL508-508)
Construct: expressed in transfected cells; host or cells: CFBE41o- human lung-derived epithelial cells (CFBE4lo-F508delCFTR-HRP), doxycycline-inducible
Sequence (P13569 with tags, fused parts or gaps DEL508-508): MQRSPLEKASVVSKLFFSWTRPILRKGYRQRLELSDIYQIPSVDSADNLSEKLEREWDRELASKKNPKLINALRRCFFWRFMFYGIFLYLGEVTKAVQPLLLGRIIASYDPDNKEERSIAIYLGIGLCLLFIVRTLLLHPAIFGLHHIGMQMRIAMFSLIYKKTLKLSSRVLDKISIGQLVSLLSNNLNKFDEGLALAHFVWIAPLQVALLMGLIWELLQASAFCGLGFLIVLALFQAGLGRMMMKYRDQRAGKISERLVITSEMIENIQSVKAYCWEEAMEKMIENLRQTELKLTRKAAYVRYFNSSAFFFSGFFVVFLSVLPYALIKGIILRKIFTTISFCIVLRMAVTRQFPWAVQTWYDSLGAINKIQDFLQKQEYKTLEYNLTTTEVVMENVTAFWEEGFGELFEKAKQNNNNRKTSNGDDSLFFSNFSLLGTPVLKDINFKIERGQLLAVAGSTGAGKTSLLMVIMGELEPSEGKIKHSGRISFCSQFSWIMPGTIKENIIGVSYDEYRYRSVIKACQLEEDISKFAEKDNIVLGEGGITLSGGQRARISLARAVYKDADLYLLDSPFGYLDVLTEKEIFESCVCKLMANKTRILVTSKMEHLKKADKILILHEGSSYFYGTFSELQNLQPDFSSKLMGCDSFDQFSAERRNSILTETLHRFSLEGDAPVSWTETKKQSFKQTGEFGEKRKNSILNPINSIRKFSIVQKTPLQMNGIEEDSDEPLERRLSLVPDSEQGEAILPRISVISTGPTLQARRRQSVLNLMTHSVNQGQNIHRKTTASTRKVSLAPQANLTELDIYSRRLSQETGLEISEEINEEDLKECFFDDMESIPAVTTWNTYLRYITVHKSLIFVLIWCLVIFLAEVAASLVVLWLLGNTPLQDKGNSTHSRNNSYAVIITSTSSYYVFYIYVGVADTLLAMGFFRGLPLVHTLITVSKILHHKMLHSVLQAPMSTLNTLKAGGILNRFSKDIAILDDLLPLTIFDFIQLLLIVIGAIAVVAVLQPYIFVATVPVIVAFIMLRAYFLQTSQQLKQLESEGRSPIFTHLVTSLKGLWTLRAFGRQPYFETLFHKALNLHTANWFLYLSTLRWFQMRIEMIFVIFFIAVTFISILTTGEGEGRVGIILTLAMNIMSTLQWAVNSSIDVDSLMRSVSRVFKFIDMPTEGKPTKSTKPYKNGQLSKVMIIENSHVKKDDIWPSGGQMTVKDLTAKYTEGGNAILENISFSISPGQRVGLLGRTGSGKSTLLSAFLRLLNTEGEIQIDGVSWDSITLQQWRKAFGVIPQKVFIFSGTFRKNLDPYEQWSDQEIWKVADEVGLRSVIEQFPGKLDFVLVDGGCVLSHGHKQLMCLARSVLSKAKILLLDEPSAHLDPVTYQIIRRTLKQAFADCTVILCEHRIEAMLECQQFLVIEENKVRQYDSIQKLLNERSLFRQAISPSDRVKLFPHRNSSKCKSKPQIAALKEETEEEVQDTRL
Test Summary: Cell Surface Expression-Horse Radish Peroxidase (CSE-HRP) Assay
Type: cell-based
Test Settings: test compound without co-corrector; read-out: EC50 (without co-corrector)

Would you please look over these solved cases?
Molecule | Measurement
COc1ccc(C(C)(C)C)cc1CN[C@H]1[C@H](C(C)(C)C)[C@@H](C(=O)O)N(C(=O)C2C3C2[C@H]2CC[C@@H]3C2)[C@H]1c1ccccc1 (stereo partly drawn) | < 1000 nM
COc1ccc(C(C)(C)C)cc1CN[C@H]1[C@H](C(C)(C)C)[C@@H](C(=O)O)N(C(=O)[C@@H]2CCCO2)[C@H]1c1ccccc1 | 1000 to 10000 nM
CC(C)(C)[C@@H]1[C@@H](NCc2ccccc2OC(F)F)[C@@H](c2ccccc2)N(C(=O)C2CCCCC2)[C@H]1C(=O)O (racemic) | 1000 to 10000 nM
CO[C@H](C(=O)N1[C@H](c2cccnc2N(C)C)[C@H](Nc2cc(C(F)(F)F)cc(C)n2)[C@@H](C(C)(C)C)[C@@H]1C(=O)O)c1ccccc1 (racemic) | > 10000 nM
COc1ncc(-c2ccccc2F)cc1CN[C@H]1[C@H](C(C)(C)C)[C@@H](C(=O)O)N(C(=O)C2CCCCC2)[C@H]1c1ccccc1F | < 1000 nM

Let us move to another entry and its EC50.
The recorded EC50 for entry COc1cc2c(cc1CN[C@H]1[C@H](C(C)(C)C)[C@@H](C(=O)O)N(C(=O)OC(C)C)[C@H]1c1cccnc1N(C)C)CCCC2 equals 1000 to 10000 nM

----------
Subject Of Test: F508delCFTR (Homo sapiens, UniProt P13569, DEL508-508)
Construct: expressed in transfected cells; host or cells: CFBE41o- human lung-derived epithelial cells (CFBE4lo-F508delCFTR-HRP), doxycycline-inducible
Test Summary: Cell Surface Expression-Horse Radish Peroxidase (CSE-HRP) Assay;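 for Maximum % activity (with co-corrector): co-corrector and positive control are both the same reference corrector at 2 µM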
Assay type: cell-based
Test Settings: with co-corrector (2 μM); maximum at any tested concentration, normalized to on-plate positive control
Method: Cell Surface Expression-Horse Radish Peroxidase (CSE-HRP) Assay The development was achieved by expressing the F508delCFTR mutation along with a horseradish peroxidase (HRP) in the fourth exofacial loop, and then measuring the HRP activity using luminescence readout from these cells, CFBE4lo-F508delCFTR-HRP, that were incubated overnight with the test corrector compounds, either without or with the co-corrector. […] The raw counts from the experiment were analyzed using Accelrys® Assay Explorer v3.3. […]
Reported Property: Maximum % activity (with co-corrector)

Molecule Smiles | Reported Property | Measurement
COc1cc2c(cc1CN[C@H]1[C@H](C(C)(C)C)[C@@H](C(=O)O)N(C(=O)OC(C)C)[C@H]1c1ccccc1)CCC2 | Maximum % activity (with co-corrector) | +++ (≥350)
COc1ccc(C23CC(C2)C3)cc1CN[C@H]1[C@H](C(C)(C)C)[C@@H](C(=O)O)N(C(=O)OC(C)C)[C@H]1c1ccccc1 | Maximum % activity (with co-corrector) | +++ (≥350)

----------
Subject Of Test: F508delCFTR (Homo sapiens, UniProt P13569, DEL508-508)
Construct: expressed in transfected cells; host or cells: CFBE41o- human lung-derived epithelial cells (CFBE4lo-F508delCFTR-HRP), doxycycline-inducible
Test Summary: Cell Surface Expression-Horse Radish Peroxidase (CSE-HRP) Assay;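 for Maximum % activity (without co-corrector): percent of the 2 µM on-plate positive control corrector response above DMSO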
Format: cell-based
Test Settings: CSE-HRP; without co-corrector; maximum at any tested concentration, normalized to on-plate positive control; read-out: Maximum % activity (without co-corrector)
Reported Property: Emax

These solved cases illustrate the format of a correct answer.
Compound | Reported Property | Measurement
COc1ccc(C(C)(C)C)cc1CN[C@H]1[C@H](C(C)(C)C)[C@@H](C(=O)O)N(C(=O)CC2CCC(F)(F)C2)[C@H]1c1ccccc1 (stereo partly drawn) | Emax | 100 to 200%
COc1ccccc1[C@@H]1[C@H](NCc2cc(C(F)(F)F)cnc2Cl)[C@@H](C(C)(C)C)[C@H](C(=O)O)N1C(=O)C1CCCCC1 (racemic) | Emax | < 100%
COc1cc(C(F)(F)F)ccc1CN[C@@H]1[C@@H](C(C)(C)C)[C@H](C(=O)O)N(C(=O)C2CCC(F)(F)CC2)[C@@H]1c1ccccc1 (racemic) | Emax | < 100%
COc1ccc(C2=CCOC2)cc1CN[C@H]1[C@H](C(C)(C)C)[C@@H](C(=O)O)N(C(=O)C2CCCCC2)[C@H]1c1ccccc1 | Emax | 100 to 200%
COc1ccc(C(F)(F)F)cc1CN[C@H]1[C@H](C(C)(C)C)[C@@H](C(=O)O)N(C(=O)[C@H](OC)c2ccccc2)[C@H]1c1ccccc1N(C)C | Emax | > 200%
Cc1cc(C(F)(F)F)cc(N[C@@H]2[C@@H](C(C)(C)C)[C@H](C(=O)O)N(C(=O)Cc3ccccc3)[C@@H]2c2ccccc2)n1 (racemic) | Emax | < 100%
CCOc1ccc(CN[C@H]2[C@H](C(C)(C)C)[C@@H](C(=O)O)N(C(=O)C3CCCCC3)[C@H]2c2ccccc2)c(C)c1 | Emax | < 100%
COc1ccc(Cl)cc1CN[C@H]1[C@H](C(C)(C)C)[C@@H](C(=O)O)N(C(=O)[C@H](OC)c2ccccc2)[C@H]1c1ccccc1N(C)C | Emax | > 200%
COc1ccc(C(F)(F)F)cc1CN[C@H]1[C@H](C(C)(C)C)[C@@H](C(=O)O)N(C(=O)C(OC)C(C)C)[C@H]1c1ccccc1 (stereo partly drawn) | Emax | > 200%
COc1ccc(C(C)(C)C)cc1CN[C@H]1[C@H](C(C)(C)C)[C@@H](C(=O)O)N(C(=O)C2CC(C)CCO2)[C@H]1c1ccccc1 (stereo partly drawn) | Emax | > 200%

// compound COc1ccc(C(C)(C)C)cc1CN[C@H]1[C@H](C(C)(C)C)[C@@H](C(=O)O)N(C(=O)CC23CC(C2)C3)[C@H]1c1ccccc1 , assay F508delCFTR (Homo sapiens, UniProt P13569, DEL508-508), Emax value: > 200%

Record COc1ccc(-c2ccc(C)cc2)cc1CN[C@H]1[C@H](C(C)(C)C)[C@@H](C(=O)O)N(C(=O)C2CCCCC2)[C@H]1c1ccccc1 / F508delCFTR (Homo sapiens, UniProt P13569, DEL508-508), Emax recorded as > 200%
